study-system: UniProt O00763
Sequence (O00763 whole entry): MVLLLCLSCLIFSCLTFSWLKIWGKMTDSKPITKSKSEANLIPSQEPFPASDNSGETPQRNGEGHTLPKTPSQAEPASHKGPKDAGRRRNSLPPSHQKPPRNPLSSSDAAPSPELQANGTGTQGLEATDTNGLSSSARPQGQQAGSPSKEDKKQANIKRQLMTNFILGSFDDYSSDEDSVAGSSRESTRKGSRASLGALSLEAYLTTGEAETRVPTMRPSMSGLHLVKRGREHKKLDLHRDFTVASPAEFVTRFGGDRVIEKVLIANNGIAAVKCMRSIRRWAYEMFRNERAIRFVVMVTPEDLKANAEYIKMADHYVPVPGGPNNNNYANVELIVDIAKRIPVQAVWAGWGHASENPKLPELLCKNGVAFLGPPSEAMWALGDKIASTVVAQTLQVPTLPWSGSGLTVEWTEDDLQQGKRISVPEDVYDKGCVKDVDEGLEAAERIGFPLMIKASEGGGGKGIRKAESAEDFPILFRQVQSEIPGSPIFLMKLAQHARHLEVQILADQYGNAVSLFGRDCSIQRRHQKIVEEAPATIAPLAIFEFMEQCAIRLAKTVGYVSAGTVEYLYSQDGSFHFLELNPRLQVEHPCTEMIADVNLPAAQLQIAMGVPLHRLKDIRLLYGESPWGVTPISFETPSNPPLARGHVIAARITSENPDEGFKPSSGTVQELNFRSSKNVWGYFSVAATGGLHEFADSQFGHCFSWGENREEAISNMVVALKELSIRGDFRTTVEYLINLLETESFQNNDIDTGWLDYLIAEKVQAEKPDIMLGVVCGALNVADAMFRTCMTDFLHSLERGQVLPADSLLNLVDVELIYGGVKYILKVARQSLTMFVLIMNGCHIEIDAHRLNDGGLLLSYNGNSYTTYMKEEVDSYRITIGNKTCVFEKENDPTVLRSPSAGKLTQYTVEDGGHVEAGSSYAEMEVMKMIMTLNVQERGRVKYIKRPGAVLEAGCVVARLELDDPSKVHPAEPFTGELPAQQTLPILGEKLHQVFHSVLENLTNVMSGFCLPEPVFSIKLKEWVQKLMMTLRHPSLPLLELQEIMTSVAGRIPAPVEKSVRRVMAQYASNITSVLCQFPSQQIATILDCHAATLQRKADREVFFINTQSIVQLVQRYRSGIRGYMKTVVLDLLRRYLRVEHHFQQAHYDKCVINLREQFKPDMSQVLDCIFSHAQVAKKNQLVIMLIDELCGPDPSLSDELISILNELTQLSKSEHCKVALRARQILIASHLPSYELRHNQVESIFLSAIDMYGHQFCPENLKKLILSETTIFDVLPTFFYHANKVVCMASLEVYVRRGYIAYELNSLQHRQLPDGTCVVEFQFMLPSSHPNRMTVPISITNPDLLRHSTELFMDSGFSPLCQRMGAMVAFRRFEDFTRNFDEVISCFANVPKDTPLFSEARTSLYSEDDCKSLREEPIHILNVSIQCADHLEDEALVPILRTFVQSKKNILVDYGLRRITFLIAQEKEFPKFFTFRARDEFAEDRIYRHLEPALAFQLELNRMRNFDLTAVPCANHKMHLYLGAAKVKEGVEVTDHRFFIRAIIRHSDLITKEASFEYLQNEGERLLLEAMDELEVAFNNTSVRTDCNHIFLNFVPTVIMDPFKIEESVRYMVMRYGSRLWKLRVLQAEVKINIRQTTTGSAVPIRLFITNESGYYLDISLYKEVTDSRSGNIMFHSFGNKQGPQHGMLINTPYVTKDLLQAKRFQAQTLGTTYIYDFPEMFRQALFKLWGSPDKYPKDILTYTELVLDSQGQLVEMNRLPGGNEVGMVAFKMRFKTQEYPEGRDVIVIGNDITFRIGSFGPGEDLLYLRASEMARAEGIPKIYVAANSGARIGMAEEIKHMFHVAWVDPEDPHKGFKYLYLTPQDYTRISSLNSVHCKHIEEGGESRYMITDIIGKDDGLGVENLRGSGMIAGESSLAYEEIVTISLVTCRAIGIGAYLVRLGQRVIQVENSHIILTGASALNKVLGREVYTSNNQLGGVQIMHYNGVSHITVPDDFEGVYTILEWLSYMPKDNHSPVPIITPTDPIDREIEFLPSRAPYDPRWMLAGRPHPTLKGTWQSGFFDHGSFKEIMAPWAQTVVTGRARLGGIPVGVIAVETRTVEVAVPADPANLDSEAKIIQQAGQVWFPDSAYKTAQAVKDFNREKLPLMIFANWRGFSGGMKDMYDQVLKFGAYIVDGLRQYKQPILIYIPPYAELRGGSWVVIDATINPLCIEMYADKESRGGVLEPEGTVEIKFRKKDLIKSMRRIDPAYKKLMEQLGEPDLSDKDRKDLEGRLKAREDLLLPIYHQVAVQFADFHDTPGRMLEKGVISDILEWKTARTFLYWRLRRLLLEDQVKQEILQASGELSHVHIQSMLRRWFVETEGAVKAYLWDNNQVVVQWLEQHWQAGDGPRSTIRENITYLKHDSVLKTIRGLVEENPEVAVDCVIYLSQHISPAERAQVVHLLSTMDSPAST
readout-label: IC50 (nM)

COc1ccccc1[C@H](Cn1c(=O)n([C@H]2C[C@@](C)(C(=O)O)C2)c(=O)c2c(C)c(-c3ncco3)sc21)OC1CCOCC1 ... 3.74
COc1ccccc1[C@H](Cn1c(=O)n(C2CN(C(=O)N3CCOCC3)C2)c(=O)c2c(C)c(-c3ncco3)sc21)OC1CCOCC1 ... 9.14
COc1ccccc1[C@H](Cn1c(=O)n(C2CN(C(=O)c3ncc[nH]3)C2)c(=O)c2c(C)c(-c3ncco3)sc21)OC1CCOCC1 ... 6.18
COc1ccccc1[C@H](Cn1c(=O)n(C(C)(C)C(=O)O)c(=O)c2c(C)c(-c3ncco3)sc21)OC1CCOCC1 ... 5.14
COc1ccccc1[C@H](Cn1c(=O)n([C@H]2C[C@@H](C(=O)O)C2)c(=O)c2c(C)c(-c3ncco3)sc21)OC1CCOCC1 ... 5.13
